Test system: HEK-293T
Assay: Multiplex assay against HEK293T
Format: toxicity, cell-based
Conditions: human, 12 h, 1 µM, compound concentration 1 uM, replicate 1
experimental.endpoint: Population Fragmented Nuclei (%)

[
  {
    "compound": "CC(C)Oc1ccc(C(=O)N[C@H](CNC(=O)CN(C)C)Cc2ccc(-c3cn4cccc([C@H](C)O)c4n3)cc2)cc1Cl [GSK-923295A]",
    "test.result": 9
  },
  {
    "compound": "COc1cc(N2CCC(N(C)C)CC2)ccc1Nc1ncc(Cl)c(Nc2ccccc2P(C)(C)=O)n1",
    "test.result": 19
  },
  {
    "compound": "CNc1oc(-c2cccc3ccccc23)nc1C#N",
    "test.result": 14
  },
  {
    "compound": "CCc1cc2c(cc1CC)CC(NC[C@H](O)c1ccc(O)c3[nH]c(=O)ccc13)C2 [INDACATEROL]",
    "test.result": 10
  }
]
